- TARGET OF ASSAY: T1, Human CXCR2 (human, UniProt P25025 1-360)
- T1 sequence: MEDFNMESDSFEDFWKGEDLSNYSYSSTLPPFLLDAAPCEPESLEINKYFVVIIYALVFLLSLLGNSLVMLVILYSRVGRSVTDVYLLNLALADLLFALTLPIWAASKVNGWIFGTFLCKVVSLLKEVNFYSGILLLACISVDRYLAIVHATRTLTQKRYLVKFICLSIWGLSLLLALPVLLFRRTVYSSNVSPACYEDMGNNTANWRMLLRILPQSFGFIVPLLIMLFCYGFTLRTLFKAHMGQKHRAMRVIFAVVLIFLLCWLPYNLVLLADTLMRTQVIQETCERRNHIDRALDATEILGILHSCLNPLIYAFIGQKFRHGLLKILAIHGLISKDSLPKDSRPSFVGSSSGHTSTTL
- TEST: cell-based or functional assay
Assignment: determine reported [35S]GTPγS % inhibition of max, GRO-α for the given binders.
Number first, unit second.

[[record]]
binder = "CXCR20023 (bispecific antibody, not shown: small tags and cut ends) EVQLVESGGGLVQAGGSLRLSCAASGRTFSDYAMGWFRQAPGKEREFVAAITWNGGRVFYTASVKGRFTISRDNAKNTMYLQMNSLKPEDTAVYYCAADKDRRTDYLGHPVAYWGQGTQVTVSSGGGGSGGGGSGGGGSGGGGSGGGGSGGGGSGGGGSEVQLVESGGGLVQPGGSLRLSCVASGRIFSSNAMGWFRQAPGKEREFVAAITWRSGGSAYYADSAKGRFTISRDNAKNTVYLQMNSLKPEDTAVYYCAAGGSSWLSFPPDYWGQGTQVTVSS"
value = "100%"


Note: attention shifts to another entry.
Request: Suppose we examine the binder CXCR20025 (bispecific antibody, not shown: small tags and cut ends) EVQLVESGGGLVQAGGSLRLSCAASGRTFSDYAMGWFRQAPGKEREFVAAITWNGGRVFYTASVKGRFTISRDNAKNTMYLQMNSLKPEDTAVYYCAADKDRRTDYLGHPVAYWGQGTQVTVSSGGGGSGGGGSGGGGSGGGGSGGGGSGGGGSGGGGSEVQLVESGGGLVQAGESLRLSCAASGSTFDFKVMGWYRQPPGKQREGVAAIRLSGNMHYAESVKGRFTISKANAKNTVYLQMNSLRPEDTAVYYCKVNIRGQDYWGQGTQVTVSS ; what [35S]GTPγS % inhibition of max, GRO-α value has been reported?
Response: 100%
